- studySystem: human PD-L1 (human) (UniProt Q9NZQ7)
- Sequence (Q9NZQ7 19-290): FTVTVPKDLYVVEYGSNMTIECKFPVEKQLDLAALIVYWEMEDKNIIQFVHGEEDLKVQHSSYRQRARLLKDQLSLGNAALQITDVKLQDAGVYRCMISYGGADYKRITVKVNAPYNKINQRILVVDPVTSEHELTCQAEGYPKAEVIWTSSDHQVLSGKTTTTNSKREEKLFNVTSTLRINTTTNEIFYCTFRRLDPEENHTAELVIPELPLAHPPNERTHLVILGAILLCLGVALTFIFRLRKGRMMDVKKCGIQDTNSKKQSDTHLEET
- test: flow cytometry, CHO cells expressing huPD-L1
measuredProperty: MFI at 33.3 nM (MFI)

- variant CD80 IgV-Fc M47L/L85Q (Fc fusion) VIHVTKEVKEVATLSCGHNVSVEELAQTRIYWQKEKKMVLTMMSGDLNIWPEYKNRTIFDITNNLSIVILALRPSDEGTYECVVQKYEKDAFKREHLAEVTLSVKAD: 5800

I = variant CD80 IgV-Fc H18Y/E35D/V68M/L97Q (Fc fusion) VIHVTKEVKEVATLSCGYNVSVEELAQTRIYWQKDKKMVLTMMSGDMNIWPEYKNRTIFDITNNLSIMILALRPSDEGTYECVVLKYEKDAFKREHQAEVTLSVKAD
II = variant CD80 IgV-Fc Q33L/E35D/M47I/T62N/L85Q (Fc fusion) VIHVTKEVKEVATLSCGHNVSVEELAQTRIYWLKDKKMVLTMMSGDINIWPEYKNRTIFDINNNLSIVILALRPSDEGTYECVVQKYEKDAFKREHLAEVTLSVKAD
Hi, I'm comparing I with II and wondering which one has the bigger number for MFI at 33.3 nM. Any idea? Please indicate the selected item by its label.
I
(I: 122000 MFI, II: 72600 MFI)
